Reported melting point values for the following molecules.

Worked examples follow.
>>> measurement("COC(=O)c1ccc(-c2nc(C3CC3)no2)cc1")
"100 to 102 °C"
>>> measurement("CCN(Cc1ccccc1)S(N)(=O)=O")
"79 to 81 °C"
>>> measurement("NCCCCN1CCN(CCO)CC1")
"90 to 92 °C"
>>> measurement("Cc1cc(N)[nH]c(=O)c1")
"256 to 258 °C"
>>> measurement("N#Cc1cc2ccccc2nc1Br")
"179 to 181 °C"
>>> measurement("COc1cc(C)nc(C=O)c1")
"57 to 59 °C"
>>> measurement("Nc1cnn(-c2ccccc2)c1")
"95 to 97 °C"
>>> measurement("NCCC(=O)Nc1ccc(C(N)=O)c(Cl)c1")
"264 to 266 °C"

Asked: Please give the measured melting point for this molecule: "Cc1cc(C(N)=S)ccc1F"
Given back: 89 to 91 °C

Asked: Please give the measured melting point for this molecule: "Cc1ccccc1-n1cc(C(=O)O)cn1"
Given back: 106 to 108 °C

Asked: Please give the measured melting point for this molecule: "COC(=O)c1ccccc1NC(=O)CBr"
Given back: 78 to 80 °C

Asked: Please give the measured melting point for this molecule: "Cc1ccc(NC(=O)NC(=O)CCl)c(C)c1"
Given back: 159 to 161 °C

Asked: Please give the measured melting point for this molecule: "O=Cc1cnc2ccnn2c1"
Given back: 166 to 168 °C

Asked: Please give the measured melting point for this molecule: CCS(=O)(=O)NC(C)C(=O)O (centres undefined)
Given back: 129 to 131 °C

Asked: Please give the measured melting point for this molecule: "Cc1nc(-c2cccs2)ccc1C(=O)O"
Given back: 191 to 193 °C

Asked: Please give the measured melting point for this molecule: "O=C(O)CCc1ccccn1"
Given back: 134 to 136 °C

Asked: Please give the measured melting point for this molecule: "COc1ccccc1NC(=O)c1c(C)n[nH]c1N"
Given back: 178 to 182 °C

Asked: Please give the measured melting point for this molecule: "CCn1cc(C(F)(F)C(=O)O)cn1"
Given back: 99 to 101 °C

Asked: Please give the measured melting point for this molecule: "CN1CCN(c2ccc(CN)cn2)CC1"
Given back: 60 to 62 °C

Asked: Please give the measured melting point for this molecule: "O=C(NC=C(Cl)Cl)c1ccc(Br)cc1"
Given back: 110 to 112 °C

----------
Reported melting point values for the following compounds.

Worked examples follow.
>>> measurement("O=C(O)/C=C/c1ccc(-n2ccnc2)cc1")
"300 to 302 °C"
>>> measurement("NS(=O)(=O)c1cnn(-c2cccc(C(F)(F)F)c2)c1")
"162 to 164 °C"
>>> measurement("CCOc1ccc(N2CC(C(=O)O)CC2=O)cc1 (centres undefined)")
"133 to 137 °C"
>>> measurement("Nc1ncn(CC(=O)NCc2ccccc2)n1")
"181 to 183 °C"
>>> measurement("NC(=NO)c1ccc(COc2ccccc2)cc1")
"143 to 145 °C"
>>> measurement("Cc1ccc(O)c(C(=O)Nc2ccncc2)c1")
"249 to 251 °C"
>>> measurement("Clc1cc(-n2ccnc2)ncn1")
"127 to 129 °C"
>>> measurement("O=C(c1cc(Cl)ccn1)N1CCCCC1")
"60 to 62 °C"

Asked: Please give the measured melting point for this compound: "Nc1ccc(S(=O)(=O)NCc2ccc(Cl)cc2)cc1"
Given back: 174 to 176 °C

Asked: Please give the measured melting point for this compound: "Cc1cccc2[nH]c(CC#N)nc12"
Given back: 158 to 160 °C
